Readings of cell viability for the listed compounds
- System: Calu-3
- assay-explanation: cell viability relative to DMSO; higher = less toxic
- details: 72 h; 10000 nM
readout: cell viability (%)

[[record]]
compound = "O=C(N[C@@H]1CC[C@@H](c2cccc(F)c2F)CN(CC(F)(F)F)C1=O)N1CCC(n2c(=O)[nH]c3ncccc32)CC1"
readout = "cell viability"
units_label = "%"
test_value = 108

[[record]]
compound = "CC(=O)[C@H]1CC[C@H]2[C@@H]3CC[C@H]4C[C@H](O)CC[C@]4(C)[C@H]3CC[C@]12C"
readout = "cell viability"
units_label = "%"
test_value = 103

[[record]]
compound = "N=C(N)NC(=N)Nc1cccc(Cl)c1 [m-chlorophenylbiguanide]"
readout = "cell viability"
units_label = "%"
test_value = 116

[[record]]
compound = "Nc1c(Br)cc(Br)cc1CN[C@H]1CC[C@H](O)CC1"
readout = "cell viability"
units_label = "%"
test_value = 88.7

[[record]]
compound = "CCNCC(O)c1cccc(O)c1 (stereo not given)"
readout = "cell viability"
units_label = "%"
test_value = 104

[[record]]
compound = "COC(=O)C1=C(C)N(C)C(C)=C(C(=O)OC)C1c1ccc(C(F)(F)F)cc1"
readout = "cell viability"
units_label = "%"
test_value = 100

[[record]]
compound = "CN1C(=O)C[C@@H](C(=O)N[C@@H](Cc2c[nH]cn2)C(=O)N2CCC[C@H]2C(N)=O)NC1=O"
readout = "cell viability"
units_label = "%"
test_value = 84.9

[[record]]
compound = "O=C(O)CCNC(=O)c1ccccc1"
readout = "cell viability"
units_label = "%"
test_value = 116

[[record]]
compound = "Cc1cc(SCc2sc(-c3ccc(C(F)(F)F)cc3)nc2C)ccc1OCC(=O)O"
readout = "cell viability"
units_label = "%"
test_value = 102

[[record]]
compound = "CN(C)Cc1ccc(-c2nc3cccc4c3n2CCNC4=O)cc1"
readout = "cell viability"
units_label = "%"
test_value = 99.7

[[record]]
compound = "C[C@@H]1CCO[C@H]2Cn3cc(C(=O)NCc4ccc(F)cc4F)c(=O)c(O)c3C(=O)N12"
readout = "cell viability"
units_label = "%"
test_value = 105

[[record]]
compound = "O=C(O)Cn1c(C(=O)Nc2nc(-c3ccccc3Cl)cs2)cc2ccccc21"
readout = "cell viability"
units_label = "%"
test_value = 102

[[record]]
compound = "CCOc1ccccc1-n1c(C(C)N2CCN(C(=O)COc3ccc(Cl)cc3)CC2)nc2ccccc2c1=O (stereo not given)"
readout = "cell viability"
units_label = "%"
test_value = 13.5

[[record]]
compound = "COC(=O)C1=C(C)NC(C)=C(C(=O)OCCCN2CCC(c3ccccc3)(c3ccccc3)CC2)[C@@H]1c1cccc([N+](=O)[O-])c1"
readout = "cell viability"
units_label = "%"
test_value = 15.8

[[record]]
compound = "CNC[C@H](O)c1ccc(O)c(O)c1 [epinephrine]"
readout = "cell viability"
units_label = "%"
test_value = 97.3

[[record]]
compound = "CCOC(=O)[C@@H](N)CCC(=O)N[C@@H](CSCc1ccccc1)C(=O)N[C@@H](C(=O)OCC)c1ccccc1"
readout = "cell viability"
units_label = "%"
test_value = 91.2

[[record]]
compound = "CC(=O)OCC(=O)[C@H]1CC[C@H]2[C@@H]3CC[C@H]4C[C@H](O)CC[C@]4(C)[C@H]3C(=O)C[C@]12C [alfadolone-acetate]"
readout = "cell viability"
units_label = "%"
test_value = 91.3

[[record]]
compound = "Nc1cccc(CNC(=O)c2ccc(Oc3ccc(OCc4cccc(F)c4)cc3)nc2)c1"
readout = "cell viability"
units_label = "%"
test_value = 81.9

[[record]]
compound = "CCC(C)(C)c1ccc(CC(C)CN2C[C@@H](C)O[C@@H](C)C2)cc1 (stereo not given in full)"
readout = "cell viability"
units_label = "%"
test_value = 94.7

[[record]]
compound = "NNc1nncc2ccccc12 [hydralazine]"
readout = "cell viability"
units_label = "%"
test_value = 85

[[record]]
compound = "CCC(O)(CC(N)=O)c1ccccc1 (stereo not given) [3-hydroxy-3-phenylpentanamide]"
readout = "cell viability"
units_label = "%"
test_value = 108

[[record]]
compound = "CN1CCN(CCOc2cc(OC3CCOCC3)c3c(Nc4c(Cl)ccc5c4OCO5)ncnc3c2)CC1"
readout = "cell viability"
units_label = "%"
test_value = 9.6

[[record]]
compound = "C#Cc1cncc([C@@H]2CCCN2C)c1"
readout = "cell viability"
units_label = "%"
test_value = 110

[[record]]
compound = "OC[C@H]1O[C@@H](O[C@@H]2[C@@H](CO)OC(O)(CO)[C@H]2O)[C@H](O)[C@@H](O)[C@H]1O (mixture of isomers)"
readout = "cell viability"
units_label = "%"
test_value = 101

[[record]]
compound = "O=C(NCC1CCOCC1)c1cnc(Nc2ccc(Cl)cc2Cl)nc1C(F)(F)F"
readout = "cell viability"
units_label = "%"
test_value = 105

[[record]]
compound = "CC(C)CN(C[C@@H](O)[C@H](Cc1ccccc1)NC(=O)O[C@H]1CCOC1)S(=O)(=O)c1ccc(N)cc1"
readout = "cell viability"
units_label = "%"
test_value = 107

[[record]]
compound = "CCCCOc1ccc(CC(=O)NO)cc1"
readout = "cell viability"
units_label = "%"
test_value = 99.3

[[record]]
compound = "Cc1cc(C)c(/C=C2\\C(=O)Nc3ccccc32)[nH]1"
readout = "cell viability"
units_label = "%"
test_value = 102

[[record]]
compound = "Cc1c(N(C)C)c(=O)n(-c2ccccc2)n1C"
readout = "cell viability"
units_label = "%"
test_value = 103

[[record]]
compound = "Cn1c(=O)cc(N2CCC[C@@H](N)C2)n(Cc2cc(F)ccc2C#N)c1=O"
readout = "cell viability"
units_label = "%"
test_value = 107


Where do these numbers come from? They come from the supplement of paper PMC13380429.
